tested on: 242566-281-R-J2-PDC complex spheroid viability; experiment: Anticancer human tumor 242566-281-R-J2-PDC patient-derived pancreatic carcinoma cell line growth inhibition [RAS]; conditions: compound 0.00316 µM; active compounds read low

molecule	viability, T/C
C=CC(=O)N1CCN(c2nc(OCC3CCCN3C)nc3c(F)c(-c4nc(N)cc(C)c4C(F)(F)F)c(Cl)cc23)C(C)C1 (centres undefined)	102% [middle of 12 runs]
C=CC(=O)Nc1cc(Nc2nccc(-c3cn(C)c4ccccc34)n2)c(OC)cc1N(C)CCN(C)C	105% [middle of 4 runs]
CCN1CCN(Cc2ccc(Nc3ncc(F)c(-c4cc(F)c5nc(C)n(C(C)C)c5c4)n3)nc2)CC1	102% [middle of 4 runs]
Nc1ccn(C2OC(CO)C(O)C2(F)F)c(=O)n1 (centres undefined)	102% [middle of 4 runs]

###

Tested on: 242566-281-R-J2-PDC complex spheroid viability
Assay: Anticancer human tumor 242566-281-R-J2-PDC cell line growth inhibition [RAS];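 also: spheroids exposed to compound for 7 days before readout; 100% = DMSO vehicle control wells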
Conditions: second compound 1 µM; first compound 0.0316 µM; active compounds read low
Excerpt: RAS pathway inhibitors in Combinations in Complex Spheroids A high-throughput screen of multi-cell type tumor spheroids was designed to identify active combinations of RAS pathway inhibitors and targeted small molecules. Complex spheroids include a stromal component modeled by human endothelial cells (HUVEC) and fibroblasts modeled by human mesenchymal stem cells (MSCs). […] Compounds. […] If the clinical Cmax for an agent had not been determined, the highest concentration tested was 10 microM. […]
Some compounds, each annotated with its measured viability, T/C.
result.type: viability, T/C

compound	result.type	measured.value
C=CC(=O)Nc1cc(Nc2nccc(-c3cn(C)c4ccccc34)n2)c(OC)cc1N(C)CCN(C)C + C=CC(=O)N1CCN(c2nc(OCC3CCCN3C)nc3c(F)c(-c4nc(N)cc(C)c4C(F)(F)F)c(Cl)cc23)C(C)C1	viability, T/C	81%
CC(=O)OC12COC1CC(O)C1(C)C(=O)C(O)C3=C(C)C(OC(=O)C(O)C(NC(=O)OC(C)(C)C)c4ccccc4)CC(O)(C(OC(=O)c4ccccc4)C21)C3(C)C (configuration not stated) + C#Cc1c(F)ccc2cc(O)cc(-c3ncc4c(N5CC6CCC(C5)N6)nc(OCC56CCCN5CC(F)C6)nc4c3F)c12	viability, T/C	37.8%

###

test system: 242566-281-R-J2-PDC complex spheroid viability; experiment: Anticancer human tumor 242566-281-R-J2-PDC cell line growth inhibition [RAS]; conditions: second compound 0.0949 µM; first compound 0.1 µM; active = viability on the fitted dose curve at most 10% of control; inactive = the rest;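 also: spheroids exposed to compound for 7 days before readout; 100% = DMSO vehicle control wells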
Possible outcomes: 1 = active, -1 = inactive

compound	tested.system	group
Cc1nc(N2CCC3(CC2)COC(C)C3N)c(CO)nc1Sc1ccnc(N)c1Cl (centres undefined) + CCn1c(-c2cc(N3CCN(C)CC3)cnc2C(C)OC)c2c3cc(ccc31)-c1csc(n1)CC(NC(=O)C1CC1C)C(=O)N1CCCC(N1)C(=O)OCC(C)(C)C2	242566-281-R-J2-PDC complex spheroid viability	-1
CC1(O)CCCC1n1c(=O)c(C(F)F)cc2cnc(NC3CCN(S(C)(=O)=O)CC3)nc21 (centres undefined) + CCn1c(-c2cccnc2C(C)OC)c2c3cc(ccc31)N1CCOC(CC(NC(=O)C(C(C)C)N(C)C(=O)C3(F)CCN(C(=O)C#CC(C)(C)N(C)C)CC3)C(=O)N3CCCC(N3)C(=O)OCC(C)(C)C2)C1	242566-281-R-J2-PDC complex spheroid viability	-1
CC(C)n1nc(-c2ccc3oc(N)nc3c2)c2c(N)ncnc21 + CCn1c(-c2cc(N3CCN(C)CC3)cnc2C(C)OC)c2c3cc(ccc31)-c1csc(n1)CC(NC(=O)C1CC1C)C(=O)N1CCCC(N1)C(=O)OCC(C)(C)C2	242566-281-R-J2-PDC complex spheroid viability	1
CC(C)NCC(C(=O)N1CCN(c2ncnc3c2C(C)CC3O)CC1)c1ccc(Cl)cc1 (centres undefined) + CCn1c(-c2cc(N3CCN(C)CC3)cnc2C(C)OC)c2c3cc(ccc31)-c1csc(n1)CC(NC(=O)C1CC1C)C(=O)N1CCCC(N1)C(=O)OCC(C)(C)C2	242566-281-R-J2-PDC complex spheroid viability	-1
NC1c2ccccc2OC12CCN(c1cnc3c(N4CCCc5ncccc54)n[nH]c3n1)CC2 (centres undefined) + CCn1c(-c2cc(N3CCN(C)CC3)cnc2C(C)OC)c2c3cc(ccc31)-c1csc(n1)CC(NC(=O)C1CC1C)C(=O)N1CCCC(N1)C(=O)OCC(C)(C)C2	242566-281-R-J2-PDC complex spheroid viability	-1
Nc1ccn(C2OC(CO)C(O)C2(F)F)c(=O)n1 (centres undefined) + CCn1c(-c2cc(N3CCN(C)CC3)cnc2C(C)OC)c2c3cc(ccc31)-c1csc(n1)CC(NC(=O)C1CC1C)C(=O)N1CCCC(N1)C(=O)OCC(C)(C)C2	242566-281-R-J2-PDC complex spheroid viability	-1
CC(Nc1ccc2c(c1)OCCn1cc(N3C(=O)OCC3C(F)F)nc1-2)C(N)=O (centres undefined) + CCn1c(-c2cc(N3CCN(C)CC3)cnc2C(C)OC)c2c3cc(ccc31)-c1csc(n1)CC(NC(=O)C1CC1C)C(=O)N1CCCC(N1)C(=O)OCC(C)(C)C2	242566-281-R-J2-PDC complex spheroid viability	-1
CC(=O)OC12COC1CC(O)C1(C)C(=O)C(O)C3=C(C)C(OC(=O)C(O)C(NC(=O)OC(C)(C)C)c4ccccc4)CC(O)(C(OC(=O)c4ccccc4)C21)C3(C)C (centres undefined) + CCn1c(-c2cc(N3CCN(C)CC3)cnc2C(C)OC)c2c3cc(ccc31)-c1csc(n1)CC(NC(=O)C1CC1C)C(=O)N1CCCC(N1)C(=O)OCC(C)(C)C2	242566-281-R-J2-PDC complex spheroid viability	-1
CC(Nc1ccc2c(c1)OCCn1cc(N3C(=O)OCC3C(F)F)nc1-2)C(N)=O (centres undefined) + CCn1c(-c2cccnc2C(C)OC)c2c3cc(ccc31)N1CCOC(CC(NC(=O)C(C(C)C)N(C)C(=O)C3(F)CCN(C(=O)C#CC(C)(C)N(C)C)CC3)C(=O)N3CCCC(N3)C(=O)OCC(C)(C)C2)C1	242566-281-R-J2-PDC complex spheroid viability	-1
C[C@@H](NC(=O)c1ncnc(N)c1Cl)c1ncc(C(=O)Nc2cc(C(F)(F)F)c(Cl)cn2)s1 + CCn1c(-c2cccnc2C(C)OC)c2c3cc(ccc31)N1CCOC(CC(NC(=O)C(C(C)C)N(C)C(=O)C3(F)CCN(C(=O)C#CC(C)(C)N(C)C)CC3)C(=O)N3CCCC(N3)C(=O)OCC(C)(C)C2)C1	242566-281-R-J2-PDC complex spheroid viability	-1
CC(C)NCC(C(=O)N1CCN(c2ncnc3c2C(C)CC3O)CC1)c1ccc(Cl)cc1 (centres undefined) + CCn1c(-c2cccnc2C(C)OC)c2c3cc(ccc31)N1CCOC(CC(NC(=O)C(C(C)C)N(C)C(=O)C3(F)CCN(C(=O)C#CC(C)(C)N(C)C)CC3)C(=O)N3CCCC(N3)C(=O)OCC(C)(C)C2)C1	242566-281-R-J2-PDC complex spheroid viability	-1
C=CC(=O)Nc1cc(Nc2nccc(-c3cn(C)c4ccccc34)n2)c(OC)cc1N(C)CCN(C)C + CCn1c(-c2cc(N3CCN(C)CC3)cnc2C(C)OC)c2c3cc(ccc31)-c1csc(n1)CC(NC(=O)C1CC1C)C(=O)N1CCCC(N1)C(=O)OCC(C)(C)C2	242566-281-R-J2-PDC complex spheroid viability	-1
C[C@@H](NC(=O)c1ncnc(N)c1Cl)c1ncc(C(=O)Nc2cc(C(F)(F)F)c(Cl)cn2)s1 + CCn1c(-c2cc(N3CCN(C)CC3)cnc2C(C)OC)c2c3cc(ccc31)-c1csc(n1)CC(NC(=O)C1CC1C)C(=O)N1CCCC(N1)C(=O)OCC(C)(C)C2	242566-281-R-J2-PDC complex spheroid viability	-1
CC1(O)CCCC1n1c(=O)c(C(F)F)cc2cnc(NC3CCN(S(C)(=O)=O)CC3)nc21 (centres undefined) + CCn1c(-c2cc(N3CCN(C)CC3)cnc2C(C)OC)c2c3cc(ccc31)-c1csc(n1)CC(NC(=O)C1CC1C)C(=O)N1CCCC(N1)C(=O)OCC(C)(C)C2	242566-281-R-J2-PDC complex spheroid viability	-1

###

Some compounds, each annotated with its measured viability, T/C.
tested on: 242566-281-R-J2-PDC complex spheroid viability; assay: Anticancer human tumor 242566-281-R-J2-PDC cell line growth inhibition [RAS]; conditions: second compound 0.01 µM; first compound 1 µM; active compounds read low;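 also: spheroids exposed to compound for 7 days before readout; 100% = DMSO vehicle control wells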
result.type: viability, T/C (%)

compound	measured.value
C[C@@H](NC(=O)c1ncnc(N)c1Cl)c1ncc(C(=O)Nc2cc(C(F)(F)F)c(Cl)cn2)s1 + C=CC(=O)N1CCN(c2nc(OCC3CCCN3C)nc3c(F)c(-c4nc(N)cc(C)c4C(F)(F)F)c(Cl)cc23)C(C)C1	105
CCC(CC)c1cc(NC2CCC(N)C2)n2nccc2n1 (stereo not given) + C=CC(=O)N1CCN(c2nc(OCC3CCCN3C)nc3c(F)c(-c4nc(N)cc(C)c4C(F)(F)F)c(Cl)cc23)C(C)C1	100
Nc1ccn(C2OC(CO)C(O)C2(F)F)c(=O)n1 (stereo not given) + C=CC(=O)N1CCN(c2nc(OCC3CCCN3C)nc3c(F)c(-c4nc(N)cc(C)c4C(F)(F)F)c(Cl)cc23)C(C)C1	16.2
C=CC(=O)Nc1cc(Nc2nccc(-c3cn(C)c4ccccc34)n2)c(OC)cc1N(C)CCN(C)C + C=CC(=O)N1CCN(c2nc(OCC3CCCN3C)nc3c(F)c(-c4nc(N)cc(C)c4C(F)(F)F)c(Cl)cc23)C(C)C1	84.8
CC1(O)CCCC1n1c(=O)c(C(F)F)cc2cnc(NC3CCN(S(C)(=O)=O)CC3)nc21 (stereo not given) + C=CC(=O)N1CCN(c2nc(OCC3CCCN3C)nc3c(F)c(-c4nc(N)cc(C)c4C(F)(F)F)c(Cl)cc23)C(C)C1	99.5
